Recorded values, source ChEMBL document CHEMBL1131696.

Listed next: entries and their corresponding IC50.
Target: Gastrin/cholecystokinin type B receptor (Mus musculus, UniProt P56481)
Sequence (P56481 whole entry): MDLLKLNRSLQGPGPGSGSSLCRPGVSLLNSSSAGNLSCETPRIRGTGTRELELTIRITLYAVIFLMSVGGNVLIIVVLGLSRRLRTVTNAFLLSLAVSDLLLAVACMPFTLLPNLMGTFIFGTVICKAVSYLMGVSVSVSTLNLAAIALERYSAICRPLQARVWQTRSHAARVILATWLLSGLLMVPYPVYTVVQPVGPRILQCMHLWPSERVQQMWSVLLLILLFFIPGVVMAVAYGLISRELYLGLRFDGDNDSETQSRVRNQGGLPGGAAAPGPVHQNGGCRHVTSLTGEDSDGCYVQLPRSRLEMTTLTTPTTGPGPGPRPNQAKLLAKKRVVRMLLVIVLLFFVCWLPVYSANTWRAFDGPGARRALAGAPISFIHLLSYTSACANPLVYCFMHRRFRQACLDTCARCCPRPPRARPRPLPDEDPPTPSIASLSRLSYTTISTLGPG
Please respond with the number in µM and leave the unit unwritten.

> print(dat)
                               smiles.input  measurement.name  output.unit  endpoint.result
1  C[Si](C)(C)CCOC(=O)C[C@@H](Cc1ccccc1)NC(=O)[C@@H]1Cc2c([nH]c3ccccc23)[C@H]2C[C@H](NC(=O)OCc3ccccc3)C(=O)N21              IC50           µM              1.5

Pending compound:
// map C[Si](C)(C)CCOC(=O)C[C@H](Cc1ccccc1)NC(=O)[C@@H]1Cc2c([nH]c3ccccc23)[C@H]2C[C@H](NC(=O)OCc3ccccc3)C(=O)N21 to recorded IC50 (system: Gastrin/cholecystokinin type B receptor (Mus musculus, UniProt P56481))
2.4

----------
Here's a batch of compounds along with measured IC50 for Cholecystokinin receptor type A (Rattus norvegicus).
Please respond with the number in nM and leave the unit unwritten.

> print(dat)
                               smiles.input  measurement.name  output.unit  endpoint.result
1  O=C(O)C[C@@H](Cc1ccccc1)NC(=O)[C@@H]1Cc2c([nH]c3ccccc23)[C@H]2C[C@H](NC(=O)OCc3ccccc3)C(=O)N21              IC50           nM              7.4
2  C[Si](C)(C)CCOC(=O)C[C@H](Cc1ccccc1)NC(=O)[C@@H]1Cc2c([nH]c3ccccc23)[C@H]2C[C@H](NC(=O)OCc3ccccc3)C(=O)N21              IC50           nM              220
3  O=C(O)C[C@@H](Cc1ccccc1)NC(=O)[C@@H]1Cc2c([nH]c3ccccc23)[C@@H]2C[C@H](NC(=O)OCc3ccccc3)C(=O)N12              IC50           nM             1000
4  CC(C)(C)OC(=O)N[C@H]1C[C@@H]2c3[nH]c4ccccc4c3C[C@@H](C(=O)N[C@@H](CC(=O)O)Cc3ccccc3)N2C1=O              IC50           nM             4480

// map O=C(O)C[C@H](Cc1ccccc1)NC(=O)[C@@H]1Cc2c([nH]c3ccccc23)[C@@H]2C[C@H](NC(=O)OCc3ccccc3)C(=O)N12 to recorded IC50 (system: Cholecystokinin receptor type A (Rattus norvegicus))
Sequence (P30551 whole entry): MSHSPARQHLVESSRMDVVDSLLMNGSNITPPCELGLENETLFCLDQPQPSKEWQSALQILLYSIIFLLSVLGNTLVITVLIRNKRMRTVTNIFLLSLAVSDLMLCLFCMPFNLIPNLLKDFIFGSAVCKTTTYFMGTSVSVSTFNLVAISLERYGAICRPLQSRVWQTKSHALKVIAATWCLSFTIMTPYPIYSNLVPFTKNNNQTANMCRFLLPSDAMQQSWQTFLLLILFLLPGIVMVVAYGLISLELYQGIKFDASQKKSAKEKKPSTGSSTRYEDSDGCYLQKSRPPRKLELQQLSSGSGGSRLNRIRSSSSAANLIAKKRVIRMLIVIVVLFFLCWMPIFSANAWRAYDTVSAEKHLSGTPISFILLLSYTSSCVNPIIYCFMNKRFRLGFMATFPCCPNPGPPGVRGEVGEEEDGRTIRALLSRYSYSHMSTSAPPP
635

// map C[Si](C)(C)CCOC(=O)C[C@H](Cc1ccccc1)NC(=O)[C@@H]1Cc2c([nH]c3ccccc23)[C@@H]2C[C@H](NC(=O)OCc3ccccc3)C(=O)N12 to recorded IC50 (system: Cholecystokinin receptor type A (Rattus norvegicus))
460

----------
Target: Gastrin/cholecystokinin type B receptor (Mus musculus, UniProt P56481)
Measurement name: IC50

# annotated cases, reported IC50 shown
> print(dat)
                               smiles.input  endpoint.result
1  CC(C)(C)OC(=O)N[C@H]1C[C@@H]2c3[nH]c4ccccc4c3C[C@@H](C(=O)N[C@@H](CC(=O)O)Cc3ccccc3)N2C1=O          > 10 µM
2  C[Si](C)(C)CCOC(=O)C[C@@H](Cc1ccccc1)NC(=O)[C@@H]1Cc2c([nH]c3ccccc23)[C@@H]2C[C@H](NC(=O)OCc3ccccc3)C(=O)N12          > 10 µM

Pending compound:
// map O=C(O)C[C@H](Cc1ccccc1)NC(=O)[C@@H]1Cc2c([nH]c3ccccc23)[C@@H]2C[C@H](NC(=O)OCc3ccccc3)C(=O)N12 to recorded IC50 (system: Gastrin/cholecystokinin type B receptor (Mus musculus, UniProt P56481))
> 10 µM
